The measured values listed here are drawn from patent US20110028447A1.

- SYSTEM TESTED: human CB1 receptor (Homo sapiens, UniProt P21554)
- Sequence (P21554 whole entry): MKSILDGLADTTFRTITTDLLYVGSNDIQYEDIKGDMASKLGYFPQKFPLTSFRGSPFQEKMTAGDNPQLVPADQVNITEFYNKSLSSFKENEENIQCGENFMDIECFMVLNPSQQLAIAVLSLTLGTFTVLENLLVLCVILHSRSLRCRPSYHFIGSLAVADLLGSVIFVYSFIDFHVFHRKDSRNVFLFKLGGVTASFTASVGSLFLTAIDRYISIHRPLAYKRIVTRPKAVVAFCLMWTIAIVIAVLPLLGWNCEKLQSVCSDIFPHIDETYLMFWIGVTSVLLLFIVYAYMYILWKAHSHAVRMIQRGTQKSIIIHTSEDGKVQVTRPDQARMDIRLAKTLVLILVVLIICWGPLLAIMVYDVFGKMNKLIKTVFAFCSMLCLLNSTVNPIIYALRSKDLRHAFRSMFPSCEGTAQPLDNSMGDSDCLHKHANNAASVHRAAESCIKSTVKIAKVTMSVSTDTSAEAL
- ASSAY OVERVIEW: Human CB1 receptor binding, [3H] CP-55,940 displacement on HEK cell membranes
- Parameters: expressed in transfected cells; host or cells: HEK cells, doxycycline-induced; membrane preparation
- RUN CONDITIONS: read-out: CB1 Ki
ASSAY ENDPOINT: Ki

{"columns": ["COMPOUND", "Ki"],
 "data": [
  ["CC(C)(C)[C@H](NC(=O)c1nn(Cc2ccc(C#N)cc2)c2ccccc12)C(=O)NCc1nnc(C(=O)NCCO)o1 [Example 461]", "> 400 nM"],
  ["CC(C)(C)[C@H](NC(=O)c1nn(Cc2ccc(F)cc2)c2ccccc12)C(=O)N1C[C@@H]2C[C@H]1CN2C(=O)CCC(N)=O [Example 227]", "> 400 nM"]
]}

Query compound follows.
Reported Ki for CC(C)(C)[C@H](NC(=O)c1nn(Cc2ccc(F)cc2)c2ccccc12)C(=O)N1C[C@@H]2C[C@H]1CN2C(N)=O [Example 219] was > 400 nM

* * *

- SYSTEM TESTED: human CB1 receptor (Homo sapiens)
- ASSAY OVERVIEW: [35S] GTPγS binding on membranes of CHO cells expressing the human CB1 receptor (agonism)
- Format: biochemical
- Set-up: expressed in transfected cells; membrane preparation
- RUN CONDITIONS: GTPγS EC50, human CB1, CHO cell membranes
Listing of recorded pEC50 by entry.
Units for pEC50: none; it is -log10 of a concentration expressed in mol/L.

{"columns": ["COMPOUND", "SYSTEM TESTED", "pEC50"],
 "data": [
  ["CC(C)(C)C(NC(=O)c1nn(Cc2ccc(F)cc2)c2c(Cl)cccc12)C(N)=O (stereo not drawn) [Example 181]", "human CB1 receptor (Homo sapiens)", 9.48],
  ["CC(C)(C)[C@H](NC(=O)c1nn(Cc2ccc(F)cc2)c2c(F)c(F)ccc12)C(=O)NC(CO)CO [Example 325]", "human CB1 receptor (Homo sapiens)", 8.27],
  ["COC(=O)[C@@H](CO)NC(=O)[C@@H](NC(=O)c1nn(Cc2ccc(F)cc2)c2ccccc12)C(C)(C)C [Example 234]", "human CB1 receptor (Homo sapiens)", 7.44],
  ["CC(C)(C)C(NC(=O)c1nn(Cc2ccc(F)cc2)c2c(F)cccc12)C(=O)NCCO (stereo not drawn) [Example 177]", "human CB1 receptor (Homo sapiens)", 9.51],
  ["CC(C)(C)C(NC(=O)c1nn(Cc2ccc(C#N)cc2)c2c(Cl)cccc12)C(=O)NCC(O)CO (stereo not drawn) [Example 203]", "human CB1 receptor (Homo sapiens)", 7.20],
  ["CC(C)(C)C(NC(=O)c1nn(Cc2ccc(F)cc2)c2ccccc12)C(=O)N1CCC(O)C1 (stereo not drawn) [Example 151]", "human CB1 receptor (Homo sapiens)", 8.20]
]}

Reported pEC50 for CC(C)(C)[C@H](NC(=O)c1nn(Cc2ccc(F)cc2)c2ccccc12)C(=O)NC[C@H](O)[C@@H](O)CO [Example 517] was 6.95

Reported pEC50 for CC(C)C(NC(=O)c1nn(Cc2ccccc2F)c2ccccc12)C(N)=O (stereo not drawn) [Example 17] was 6.83

Reported pEC50 for CC(C)(C)[C@H](NC(=O)c1nn(Cc2ccccc2)c2ccc(Br)cc12)C(N)=O [Example 7] was 7.89
